Provide the reported inhibition rate (%) of each item.
target: antiserum B1; assay: competition ELISA: peptide added to B1 on plate-bound hTNFα
Give the value, in units of %, as a plain number.

# get_value(readout='inhibition rate (%)', item= SDKPVAHVVANPQAE [hTNFα peptide T(9-23)] )
4

Also, PIYLGGVFQLEKGDR [hTNFα peptide H(117-131)] please.
0

Also, VNLLSAIKSPCQRET [hTNFα peptide T(91-105)] please.
3

Also, NQLVVPSEGLYLIYS [hTNFα peptide T(46-60)] please.
10

Also, GQLQWLNRRANALLA [hTNFα peptide T(24-38)] please.
92
